Molecular target: Recombinant STAT6 protein (STAT6 (W123-T658)) (Homo sapiens)
Construct: Recombinant STAT6 protein (STAT6 (W123-T658))
Sequence (P42226 123-658): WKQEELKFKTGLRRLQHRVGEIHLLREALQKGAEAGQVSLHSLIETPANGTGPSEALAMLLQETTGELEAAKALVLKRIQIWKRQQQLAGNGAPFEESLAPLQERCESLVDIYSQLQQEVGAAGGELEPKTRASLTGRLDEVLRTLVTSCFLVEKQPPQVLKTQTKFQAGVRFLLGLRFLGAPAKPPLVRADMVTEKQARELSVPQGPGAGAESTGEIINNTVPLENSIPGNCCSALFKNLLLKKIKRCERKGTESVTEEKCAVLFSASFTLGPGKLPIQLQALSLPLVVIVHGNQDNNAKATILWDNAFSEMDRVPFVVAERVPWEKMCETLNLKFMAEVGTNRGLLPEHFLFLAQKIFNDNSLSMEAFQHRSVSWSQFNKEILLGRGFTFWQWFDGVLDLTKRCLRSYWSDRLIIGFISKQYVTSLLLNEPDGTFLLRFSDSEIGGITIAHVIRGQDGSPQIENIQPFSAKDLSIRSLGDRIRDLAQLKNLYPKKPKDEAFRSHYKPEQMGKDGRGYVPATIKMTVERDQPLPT
Experiment: STAT6 Fluorescence Polarization (FP) Assay
Type: binding
Details: STAT6 (W123-T658) 250 nM, probe 5-FAM-Ap[…]-NH2 2 nM, 45-minute incubation; read-out: STAT6 (FP assay IC50 class)
pIC50: −log10 of the molar value.
Recorded measurements of pIC50, one per entry

Reference set (6 entries):
# molecule, pIC50
measured = [
    ("O=C(N[C@H]1CCC[C@H]2CC[C@@H](C(=O)N3CC(c4ccccc4N4CCOCC4)C3)N2C1=O)c1cc2cc(C(F)P(=O)(O)O)ccc2s1 (some centres unmarked) [Compound 670]", "4.52 to 5.52"),
    ("O=Cc1ccncc1C1CN(C(=O)[C@@H]2CC[C@@H]3CCC[C@H](NC(=O)c4cc5cc(CP(=O)(O)O)ccc5s4)C(=O)N32)C1 [Compound 545]", "4.52 to 5.52"),
    ("COC[C@@H]1CCN1c1ncncc1C1CN(C(=O)[C@@H]2CC[C@@H]3CCC[C@H](NC(=O)c4cc5cc([C@H](F)P(=O)(O)O)ccc5s4)C(=O)N32)C1 (single isomer, unassigned) [Compound 862]", "4.52 to 5.52"),
    ("Cc1nc2cc(CNC(=O)[C@@H]3CC[C@@H]4CCC[C@H](NC(=O)c5cc6cc(C(F)(F)P(=O)(O)O)ccc6s5)C(=O)N43)ccc2[nH]1 [Compound 1116]", "4.52 to 5.52"),
    ("O=C(N[C@H]1CCCC[C@H]2CC[C@@H](C(=O)N3CC(Oc4cccnc4)C3)N2C1=O)c1cc2cc(C(F)(F)P(=O)(O)O)ccc2s1 [Compound 724]", "5.52 to 6.52"),
    ("O=C(N[C@H]1CCC[C@H]2CC[C@@H](C(=O)N[C@@H]3CC[C@@H](O)C3)N2C1=O)c1cc2cc(C(F)P(=O)(O)O)ccc2s1 (some centres unmarked) [Compound 537]", "4.52 to 5.52"),
]

query: What value of pIC50 has been reported for the following molecule? N#Cc1ccnc(C2CN(C(=O)[C@@H]3CC[C@@H]4CCC[C@H](NC(=O)c5cc6cc(CP(=O)(O)O)ccc6s5)C(=O)N43)C2)n1 [Compound 660]
result: 4.52 to 5.52

query: Sample Cn1ncc(C2CCN(C(=O)[C@@H]3CC[C@@H]4CCCC[C@H](NC(=O)c5ccc6ccc(C(F)P(=O)(O)O)cc6c5)C(=O)N43)C2)cc1=O (some centres unmarked) [Compound 902] — what was its pIC50?
result: 4.52 to 5.52

====

Reported pIC50 by item:
Target: Recombinant STAT3 protein (STAT3 (G127-I722)) (Homo sapiens)
Construct: Recombinant STAT3 protein (STAT3 (G127-I722))
Sequence (P40763 127-722): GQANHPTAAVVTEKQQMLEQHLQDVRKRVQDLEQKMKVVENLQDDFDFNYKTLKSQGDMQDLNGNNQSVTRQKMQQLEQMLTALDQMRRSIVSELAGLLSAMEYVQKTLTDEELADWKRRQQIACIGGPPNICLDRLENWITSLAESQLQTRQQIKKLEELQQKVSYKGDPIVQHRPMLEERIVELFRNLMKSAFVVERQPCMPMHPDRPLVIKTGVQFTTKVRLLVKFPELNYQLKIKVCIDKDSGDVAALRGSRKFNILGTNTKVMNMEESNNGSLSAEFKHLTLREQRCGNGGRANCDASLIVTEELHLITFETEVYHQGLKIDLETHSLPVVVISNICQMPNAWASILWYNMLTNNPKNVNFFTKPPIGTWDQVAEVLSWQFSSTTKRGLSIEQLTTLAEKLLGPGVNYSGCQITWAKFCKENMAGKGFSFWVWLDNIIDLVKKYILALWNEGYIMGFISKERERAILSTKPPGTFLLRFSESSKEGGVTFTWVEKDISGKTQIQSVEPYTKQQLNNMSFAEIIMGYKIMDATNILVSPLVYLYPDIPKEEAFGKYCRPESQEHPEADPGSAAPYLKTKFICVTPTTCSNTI
Assay: STAT3 Fluorescence Polarization (FP) Assay
Assay type: binding
Settings: STAT3 (G127-I722) 25 nM, probe 5-FAM-GpYLPQTV-NH2 2 nM, 45-minute incubation; read-out: STAT3 (FP assay IC50 class)
pIC50: −log10 of the molar value.

// solved cases for pIC50 follow
# compound, pIC50
rows = [
    ("O=C(N[C@H]1CCC[C@H]2CC[C@@H](C(=O)N3CCN(c4cccnc4)CC34CC4)N2C1=O)c1cc2cc(C(F)(F)P(=O)(O)O)ccc2s1", "> 7.00"),
    ("N#C[C@@H]1[C@@H](c2ccccc2)CN(C(=O)[C@@H]2CC[C@@H]3CCCC[C@H](NC(=O)c4ccc5ccc([C@@H](F)P(=O)(O)O)cc5c4)C(=O)N32)C12CC2 (single isomer, unassigned)", "5.00 to 6.00"),
    ("N#C[C@@H]1CN(C(=O)[C@@H]2CCC[C@@H]3CCC[C@H](NC(=O)c4cc5cc(C(F)P(=O)(O)O)ccc5s4)C(=O)N32)C[C@H]1c1ccccc1 (relative stereo)", "5.00 to 6.00"),
    ("C[C@@H]1C[C@H]2CC[C@@H](C(=O)N3CC(c4cnccc4N(C)C)C3)N2C(=O)[C@@H](NC(=O)c2cc3cc(CP(=O)(O)O)ccc3s2)C1", "> 7.00"),
]

query: Reported pIC50 for Cc1c(F)cncc1C1CN(C(=O)[C@@H]2CC[C@@H]3CCC[C@H](NC(=O)c4cc5cc(CP(=O)(O)O)ccc5s4)C(=O)N32)C1 : what is it?
result: 5.00 to 6.00

query: Please give the measured pIC50 for this compound: N#Cc1nccc(C2CN(C(=O)[C@@H]3CC[C@@H]4CCC[C@H](NC(=O)c5cc6cc(CP(=O)(O)O)ccc6s5)C(=O)N43)C2)n1
result: 5.00 to 6.00

query: Request the reported pIC50 associated with N#C[C@H]1[C@H](c2ccccc2)CN(C(=O)[C@@H]2CC[C@@H]3CCC[C@H](NC(=O)c4cc5cc([C@H](F)P(=O)(O)O)ccc5s4)C(=O)N32)C12CC2 (single isomer, unassigned)
result: 5.00 to 6.00

query: // query pIC50 value for entry O=C(N[C@H]1CCC[C@H]2CC[C@@H](C(=O)N3CC(c4ccncc4F)C3)N2C1=O)c1cc2cc(C(F)P(=O)(O)O)ccc2s1 (some centres unmarked)
result: 6.00 to 7.00

query: Field request: pIC50 | item: O=C(N[C@H]1CCCC[C@H]2CC[C@@H](C(=O)N3CCc4[nH]ncc4C3)N2C1=O)c1cc2cc(C(F)(F)P(=O)(O)O)ccc2s1
result: 5.00 to 6.00

query: Given the entry O=C(N[C@H]1CCCC[C@H]2CC[C@@H](C(=O)NCc3cnc4[nH]ccc4c3)N2C1=O)c1cc2cc(C(F)(F)P(=O)(O)O)ccc2s1 , report its measured pIC50.
result: 6.00 to 7.00

query: Reported pIC50 for C[C@H]1CC[C@H](NC(=O)c2ccc3ccc(CP(=O)(O)O)cc3c2)C(=O)N2[C@H](CC[C@H]2C(=O)N2CC(c3ccccc3)CC23CC3)C1 (some centres unmarked) : what is it?
result: 5.00 to 6.00
